TARGET_SYSTEM: Protein cereblon/Tyrosine-protein kinase BTK (Homo sapiens, UniProt Q06187+Q96SW2)
TEST_SUMMARY: PROTAC activity at BTK/CRBN protein protein interaction in human Ramos cell assessed as degradation of BTK incubated for 17 hrs measured by Western blot analysis
Assay type: cell-based
Sequence (Q06187 whole entry): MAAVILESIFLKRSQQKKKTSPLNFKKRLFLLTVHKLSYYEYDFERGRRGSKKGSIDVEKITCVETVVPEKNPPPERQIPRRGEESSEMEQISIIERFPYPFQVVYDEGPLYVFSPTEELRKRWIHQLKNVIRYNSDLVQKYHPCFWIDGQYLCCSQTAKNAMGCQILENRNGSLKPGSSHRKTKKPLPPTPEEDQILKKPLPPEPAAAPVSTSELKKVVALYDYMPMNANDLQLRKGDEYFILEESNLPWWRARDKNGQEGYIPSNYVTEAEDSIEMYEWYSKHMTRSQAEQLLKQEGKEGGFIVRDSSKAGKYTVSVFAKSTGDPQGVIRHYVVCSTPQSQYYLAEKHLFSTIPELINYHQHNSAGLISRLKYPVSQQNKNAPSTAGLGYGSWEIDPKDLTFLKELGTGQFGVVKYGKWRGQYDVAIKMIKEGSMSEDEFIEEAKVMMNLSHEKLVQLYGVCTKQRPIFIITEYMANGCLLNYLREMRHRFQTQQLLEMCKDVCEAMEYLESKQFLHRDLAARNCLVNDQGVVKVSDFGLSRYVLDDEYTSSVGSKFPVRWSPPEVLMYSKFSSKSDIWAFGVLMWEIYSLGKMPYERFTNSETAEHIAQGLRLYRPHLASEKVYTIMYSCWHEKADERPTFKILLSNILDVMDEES
Sequence (Q96SW2 whole entry): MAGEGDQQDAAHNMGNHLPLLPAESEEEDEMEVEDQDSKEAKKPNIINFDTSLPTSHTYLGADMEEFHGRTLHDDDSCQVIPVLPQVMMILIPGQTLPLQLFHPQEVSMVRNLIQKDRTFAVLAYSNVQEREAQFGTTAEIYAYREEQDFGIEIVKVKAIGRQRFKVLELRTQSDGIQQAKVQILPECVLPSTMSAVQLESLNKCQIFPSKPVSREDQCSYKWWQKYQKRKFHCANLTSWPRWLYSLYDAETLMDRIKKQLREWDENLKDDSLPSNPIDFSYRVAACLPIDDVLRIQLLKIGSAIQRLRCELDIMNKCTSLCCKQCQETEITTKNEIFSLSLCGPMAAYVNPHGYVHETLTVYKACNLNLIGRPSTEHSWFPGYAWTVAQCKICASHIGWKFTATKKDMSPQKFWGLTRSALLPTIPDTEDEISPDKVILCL
ENDPOINT: DC50 (nM)

C[C@H]1CN(C(=O)CNc2cccc3c2C(=O)N(C2CCC(=O)NC2=O)C3=O)CCN1c1ccc(Nc2cc(-c3ccnc(N4CCn5c(cc6c5CC(C)(C)C6)C4=O)c3CO)cn(C)c2=O)nc1 (stereo not given in full) | 0.5
C[C@H]1CN(C(=O)CCCNc2cccc3c2C(=O)N(C2CCC(=O)NC2=O)C3=O)CCN1c1ccc(Nc2cc(-c3ccnc(N4CCn5c(cc6c5CC(C)(C)C6)C4=O)c3CO)cn(C)c2=O)nc1 (stereo not given in full) | 0.9

[P] C[C@H]1CN(C(=O)CCCCCCCCCCCNc2cccc3c2C(=O)N(C2CCC(=O)NC2=O)C3=O)CCN1c1ccc(Nc2cc(-c3ccnc(N4CCn5c(cc6c5CC(C)(C)C6)C4=O)c3CO)cn(C)c2=O)nc1 (stereo not given in full)
[Q] Cn1cc(-c2ccnc(N3CCn4c(cc5c4CC(C)(C)C5)C3=O)c2CO)cc(Nc2ccc(N3CCN(C(=O)CCCCCCNc4cccc5c4C(=O)N(C4CCC(=O)NC4=O)C5=O)CC3)cn2)c1=O (stereo not given)
[R] Cn1cc(-c2ccnc(N3CCn4c(cc5c4CC(C)(C)C5)C3=O)c2CO)cc(Nc2ccc(N3CCN(CCCCCCOCCOCC(=O)Nc4cccc5c4C(=O)N(C4CCC(=O)NC4=O)C5=O)CC3)cn2)c1=O (stereo not given)
[S] C[C@H]1CN(C(=O)CCCCCCNc2cccc3c2C(=O)N(C2CCC(=O)NC2=O)C3=O)CCN1c1ccc(Nc2cc(-c3ccnc(N4CCn5c(cc6c5CC(C)(C)C6)C4=O)c3CO)cn(C)c2=O)nc1 (stereo not given in full)
Query: Task field, ranking: reported DC50, descending order. The reply should contain the labels ordered as requested.
Result: P, R, S, Q

====

TARGET_SYSTEM: Tyrosine-protein kinase BTK (Homo sapiens, UniProt Q06187)
TEST_SUMMARY: Inhibition of BTK in HEK293 cells using NanoGlo substrate incubated for 2 hrs by NanoBRET assay
pIC50: −log10 of the molar value.
ENDPOINT: pIC50

C[C@H]1CN(C(=O)c2cccc3c2C(=O)N(C2CCC(=O)NC2=O)C3=O)CCN1c1ccc(Nc2cc(-c3ccnc(N4CCn5c(cc6c5CC(C)(C)C6)C4=O)c3CO)cn(C)c2=O)nc1 (stereo partly drawn) | 6.49

[P] C[C@H]1CN(C(=O)CNc2cccc3c2C(=O)N(C2CCC(=O)NC2=O)C3=O)CCN1c1ccc(Nc2cc(-c3ccnc(N4CCn5c(cc6c5CC(C)(C)C6)C4=O)c3CO)cn(C)c2=O)nc1 (stereo partly drawn)
[Q] C[C@H]1CN(C(=O)CCCCCCCCCCCNc2cccc3c2C(=O)N(C2CCC(=O)NC2=O)C3=O)CCN1c1ccc(Nc2cc(-c3ccnc(N4CCn5c(cc6c5CC(C)(C)C6)C4=O)c3CO)cn(C)c2=O)nc1 (stereo partly drawn)
Query: Identify the entry with the smaller pIC50: P or Q . // caller expects the label of the chosen entry
Result: Q
(Q: 5.49, P: 7.01)

====

TARGET_SYSTEM: Protein cereblon/Tyrosine-protein kinase BTK (Homo sapiens, UniProt Q06187+Q96SW2)
TEST_SUMMARY: PROTAC activity at BTK/CRBN protein protein interaction in human JeKo-1 cell assessed as degradation of BTK incubated for 17 hrs measured by Western blot analysis relative to control
Type: cell-based
Sequence (Q06187 2-659 limits assumed): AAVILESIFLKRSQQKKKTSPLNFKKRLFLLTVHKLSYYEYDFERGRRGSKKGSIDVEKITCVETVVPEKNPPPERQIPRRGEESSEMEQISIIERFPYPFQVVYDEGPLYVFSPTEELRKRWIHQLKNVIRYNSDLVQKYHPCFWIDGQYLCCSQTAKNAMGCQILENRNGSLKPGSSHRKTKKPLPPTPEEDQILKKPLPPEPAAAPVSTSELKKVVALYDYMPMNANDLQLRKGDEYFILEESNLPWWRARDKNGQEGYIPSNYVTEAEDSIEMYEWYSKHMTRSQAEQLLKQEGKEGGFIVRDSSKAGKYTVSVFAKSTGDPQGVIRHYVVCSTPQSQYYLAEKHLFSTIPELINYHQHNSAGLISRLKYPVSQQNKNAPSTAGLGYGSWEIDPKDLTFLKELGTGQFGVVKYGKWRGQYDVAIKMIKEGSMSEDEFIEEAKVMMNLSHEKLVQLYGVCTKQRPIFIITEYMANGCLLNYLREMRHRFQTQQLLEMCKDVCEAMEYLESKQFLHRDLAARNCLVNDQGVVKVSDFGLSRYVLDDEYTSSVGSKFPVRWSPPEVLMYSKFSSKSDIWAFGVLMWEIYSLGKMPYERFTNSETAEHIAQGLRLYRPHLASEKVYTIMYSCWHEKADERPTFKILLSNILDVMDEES
Sequence (Q96SW2 whole entry partner): as the sequence (Q96SW2 whole entry) above
ENDPOINT: Emax (%)

Recorded Emax, per entry:
C[C@H]1CN(C(=O)CCCCCCOCCOCC(=O)Nc2cccc3c2C(=O)N(C2CCC(=O)NC2=O)C3=O)CCN1c1ccc(Nc2cc(-c3ccnc(N4CCn5c(cc6c5CC(C)(C)C6)C4=O)c3CO)cn(C)c2=O)nc1 (stereo not given in full) | 97.7
C[C@H]1CN(C(=O)CCCCCCCCCCCNc2cccc3c2C(=O)N(C2CCC(=O)NC2=O)C3=O)CCN1c1ccc(Nc2cc(-c3ccnc(N4CCn5c(cc6c5CC(C)(C)C6)C4=O)c3CO)cn(C)c2=O)nc1 (stereo not given in full) | 89.8
Cn1cc(-c2ccnc(N3CCn4c(cc5c4CC(C)(C)C5)C3=O)c2CO)cc(Nc2ccc(N3CCN(CCCCCCOCCOCC(=O)Nc4cccc5c4C(=O)N(C4CCC(=O)NC4=O)C5=O)CC3)cn2)c1=O (stereo not given) | 97.7

[I] C[C@H]1CN(C(=O)CCCCCCNc2cccc3c2C(=O)N(C2CCC(=O)NC2=O)C3=O)CCN1c1ccc(Nc2cc(-c3ccnc(N4CCn5c(cc6c5CC(C)(C)C6)C4=O)c3CO)cn(C)c2=O)nc1 (stereo not given in full)
[II] C[C@H]1CN(C(=O)c2cccc3c2C(=O)N(C2CCC(=O)NC2=O)C3=O)CCN1c1ccc(Nc2cc(-c3ccnc(N4CCn5c(cc6c5CC(C)(C)C6)C4=O)c3CO)cn(C)c2=O)nc1 (stereo not given in full)
Query: Pick one, I or II : lowest reported Emax. // respond with label for picked entry
Result: II
(II: 30%, I: 97%)

====

TARGET_SYSTEM: Protein cereblon/Tyrosine-protein kinase BTK (Homo sapiens, UniProt Q06187+Q96SW2)
TEST_SUMMARY: PROTAC activity at BTK/CRBN protein protein interaction in human Ramos cell assessed as degradation of BTK incubated for 17 hrs measured by Western blot analysis relative to control
Assay type: cell-based
ENDPOINT: Emax (%)

C[C@H]1CN(C(=O)COc2cccc3c2C(=O)N(C2CCC(=O)NC2=O)C3=O)CCN1c1ccc(Nc2cc(-c3ccnc(N4CCn5c(cc6c5CC(C)(C)C6)C4=O)c3CO)cn(C)c2=O)nc1 (stereo partly drawn) | 96.2
C[C@H]1CN(C(=O)CCCCCCNc2cccc3c2C(=O)N(C2CCC(=O)NC2=O)C3=O)CCN1c1ccc(Nc2cc(-c3ccnc(N4CCn5c(cc6c5CC(C)(C)C6)C4=O)c3CO)cn(C)c2=O)nc1 (stereo partly drawn) | 95
C[C@H]1CN(C(=O)CNc2cccc3c2CN(C2CCC(=O)NC2=O)C3=O)CCN1c1ccc(Nc2cc(-c3ccnc(N4CCn5c(cc6c5CC(C)(C)C6)C4=O)c3CO)cn(C)c2=O)nc1 (stereo partly drawn) | 89.8

====

TARGET_SYSTEM: Protein cereblon/Tyrosine-protein kinase BTK (Homo sapiens, UniProt Q06187+Q96SW2)
TEST_SUMMARY: PROTAC activity at BTK/CRBN protein protein interaction in human JeKo-1 cell assessed as degradation of BTK incubated for 17 hrs measured by Western blot analysis
Type: cell-based
ENDPOINT: DC50 (nM)

C[C@H]1CN(C(=O)CCOCCOCCNc2cccc3c2C(=O)N(C2CCC(=O)NC2=O)C3=O)CCN1c1ccc(Nc2cc(-c3ccnc(N4CCn5c(cc6c5CC(C)(C)C6)C4=O)c3CO)cn(C)c2=O)nc1 (stereo partly drawn) | 4.1
C[C@H]1CN(C(=O)CCCCCCNc2cccc3c2C(=O)N(C2CCC(=O)NC2=O)C3=O)CCN1c1ccc(Nc2cc(-c3ccnc(N4CCn5c(cc6c5CC(C)(C)C6)C4=O)c3CO)cn(C)c2=O)nc1 (stereo partly drawn) | 3.3
C[C@H]1CN(C(=O)CNc2ccc3c(c2)C(=O)N(C2CCC(=O)NC2=O)C3=O)CCN1c1ccc(Nc2cc(-c3ccnc(N4CCn5c(cc6c5CC(C)(C)C6)C4=O)c3CO)cn(C)c2=O)nc1 (stereo partly drawn) | 0.8

[A] Cn1cc(-c2ccnc(N3CCn4c(cc5c4CC(C)(C)C5)C3=O)c2CO)cc(Nc2ccc(N3CCN(C(=O)CCCCCCNc4cccc5c4C(=O)N(C4CCC(=O)NC4=O)C5=O)CC3)cn2)c1=O (stereo not drawn)
[B] C[C@H]1CN(C(=O)CCCNc2cccc3c2C(=O)N(C2CCC(=O)NC2=O)C3=O)CCN1c1ccc(Nc2cc(-c3ccnc(N4CCn5c(cc6c5CC(C)(C)C6)C4=O)c3CO)cn(C)c2=O)nc1 (stereo partly drawn)
[C] C[C@H]1CN(CCCCCCOCCOCC(=O)Nc2cccc3c2C(=O)N(C2CCC(=O)NC2=O)C3=O)CCN1c1ccc(Nc2cc(-c3ccnc(N4CCn5c(cc6c5CC(C)(C)C6)C4=O)c3CO)cn(C)c2=O)nc1 (stereo partly drawn)
[D] C[C@H]1CN(C(=O)CCCCCCCCCCCNc2cccc3c2C(=O)N(C2CCC(=O)NC2=O)C3=O)CCN1c1ccc(Nc2cc(-c3ccnc(N4CCn5c(cc6c5CC(C)(C)C6)C4=O)c3CO)cn(C)c2=O)nc1 (stereo partly drawn)
Query: Put the entries in order of DC50, starting with the largest number. Provide the labels, sequenced as the question asks.
Result: D, C, A, B
(D: 348 nM, C: 9.7 nM, A: 3.5 nM, B: 1 nM)
